# measurement.target: Hck (UniProt P08631)
# Sequence (P08631 whole entry, looked up): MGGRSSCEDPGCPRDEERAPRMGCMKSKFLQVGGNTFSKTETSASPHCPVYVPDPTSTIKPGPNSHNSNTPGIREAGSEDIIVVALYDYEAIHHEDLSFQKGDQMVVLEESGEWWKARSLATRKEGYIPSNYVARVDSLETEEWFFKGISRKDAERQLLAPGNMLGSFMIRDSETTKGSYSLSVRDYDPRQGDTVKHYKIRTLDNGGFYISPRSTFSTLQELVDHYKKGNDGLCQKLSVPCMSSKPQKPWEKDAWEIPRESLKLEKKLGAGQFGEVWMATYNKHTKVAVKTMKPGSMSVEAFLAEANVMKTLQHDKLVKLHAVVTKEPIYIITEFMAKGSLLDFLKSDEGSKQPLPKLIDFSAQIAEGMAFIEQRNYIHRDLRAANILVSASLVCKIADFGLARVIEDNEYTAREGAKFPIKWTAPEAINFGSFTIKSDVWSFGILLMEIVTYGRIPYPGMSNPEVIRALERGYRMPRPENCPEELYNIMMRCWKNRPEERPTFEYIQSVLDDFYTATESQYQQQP
# assay.text: phosphorylation enrichment, bacterial display (enrichment ratio); higher = better substrate or ligand; peptides without Tyr show the background;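 further: 11-residue human phosphosite peptides and single-mutation variants displayed on the E. coli surface, counted by deep sequencing, each peptide's frequency after selection divided by its frequency in the unselected input library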;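 further: frequency after pTyr selection over input frequency; kinase dosed for 20-30% of maximal phosphorylation in three min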

- seq: "KGSEGYLAAIF [NF1_Y2503_T2507I_YF]"
  phosphorylation enrichment: 0.398
- seq: "SHSMKYFDTAV [HLA-C_Y31_R30K]"
  phosphorylation enrichment: 0.392
- seq: "DLSEVYKPRRK [CCDC93_Y176]"
  phosphorylation enrichment: 0.407

###

Reported values of phosphorylation enrichment for individual entries
# measurement.target: Fes (UniProt P07332)
# Sequence (P07332 whole entry, looked up): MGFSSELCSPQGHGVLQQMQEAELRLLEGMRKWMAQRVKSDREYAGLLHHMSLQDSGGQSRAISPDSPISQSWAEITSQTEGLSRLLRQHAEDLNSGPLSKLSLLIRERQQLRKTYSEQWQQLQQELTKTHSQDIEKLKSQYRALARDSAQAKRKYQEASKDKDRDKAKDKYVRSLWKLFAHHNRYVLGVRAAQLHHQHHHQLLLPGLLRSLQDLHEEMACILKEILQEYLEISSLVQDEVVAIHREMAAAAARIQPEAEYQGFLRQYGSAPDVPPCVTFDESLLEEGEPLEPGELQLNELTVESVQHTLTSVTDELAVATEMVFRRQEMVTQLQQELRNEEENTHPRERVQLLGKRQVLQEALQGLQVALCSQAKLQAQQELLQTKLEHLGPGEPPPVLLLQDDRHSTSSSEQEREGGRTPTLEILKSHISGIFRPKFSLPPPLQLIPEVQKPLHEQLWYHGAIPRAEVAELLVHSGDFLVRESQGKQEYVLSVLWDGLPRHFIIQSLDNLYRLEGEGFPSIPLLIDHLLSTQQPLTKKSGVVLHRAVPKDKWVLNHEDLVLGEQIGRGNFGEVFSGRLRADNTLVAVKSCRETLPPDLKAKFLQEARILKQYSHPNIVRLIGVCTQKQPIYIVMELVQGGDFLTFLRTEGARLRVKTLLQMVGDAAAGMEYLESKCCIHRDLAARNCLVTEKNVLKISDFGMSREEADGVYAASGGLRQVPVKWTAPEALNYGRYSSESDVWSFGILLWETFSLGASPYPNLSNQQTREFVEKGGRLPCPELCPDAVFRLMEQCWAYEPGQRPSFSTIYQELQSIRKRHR
# assay.text: phosphorylation enrichment, bacterial display (enrichment ratio); higher = better substrate or ligand; peptides without Tyr show the background

- seq: "VNNTVYGIDAM [EIF3J_Y143_A141T]"
  phosphorylation enrichment: 0.698
- seq: "AMCVRYDGVEV [ADAMTSL2_Y594]"
  phosphorylation enrichment: 1.26
- seq: "NHYKIYNPCAE [PTEN_Y68_L70P]"
  phosphorylation enrichment: 0.834
- seq: "CTTIHHNFMCN [TP53_Y234_Y234H_YF]"
  phosphorylation enrichment: 0.844
- seq: "KALKQYRAGPS [DDX27_Y763]"
  phosphorylation enrichment: 0.553
- seq: "IVRSLYEDLED [VHL_Y185]"
  phosphorylation enrichment: 1.08
- seq: "GFEEAYSVFKK [PAFAH1B1_Y28_YF]"
  phosphorylation enrichment: 0.696
- seq: "KDKLPYPYDDP [GPX2_Y125]"
  phosphorylation enrichment: 1.17
- seq: "PKEQKYSFLQN [GH1_Y68]"
  phosphorylation enrichment: 0.862
- seq: "AVIADYMFWLG [SPATA16_Y290_M286V]"
  phosphorylation enrichment: 1.3
- seq: "LTRDIYKNDFF [ROS1_Y2110_A2106T_YF]"
  phosphorylation enrichment: 1.07
- seq: "IGSHAYGDQYR [IDH1_Y135_R132S]"
  phosphorylation enrichment: 0.619
- seq: "ALTDNYMYVVI [HAGH_Y61_L64V]"
  phosphorylation enrichment: 1.42
- seq: "RLLVVYSWTQR [HBB_Y36_P37S]"
  phosphorylation enrichment: 1.57
- seq: "EPGSLYGCGGG [ATM_Y2019_D2016G]"
  phosphorylation enrichment: 0.803
- seq: "TISPYYCQSLF [CRYAA_Y48_R49C]"
  phosphorylation enrichment: 1.13
- seq: "DGYIDYAEFAK [MCFD2_Y138]"
  phosphorylation enrichment: 1
- seq: "MVTSGYKAKMI [EFR3A_Y447_T451M]"
  phosphorylation enrichment: 0.589
- seq: "ETGNLYIAKVE [CNTN4_Y180]"
  phosphorylation enrichment: 0.89
- seq: "TKAEKYVNKAK [PLCG1_Y991]"
  phosphorylation enrichment: 0.671
- seq: "GRIHSYRGHLW [VHL_Y112_R107G]"
  phosphorylation enrichment: 0.712

###

# Test system: c-Abl (mouse)
# assay.text: phosphorylation enrichment, bacterial display (enrichment ratio); higher = better substrate or ligand; peptides without Tyr show the background
Would you please tag the item 1 when its phosphorylation enrichment is 0.6 or above, and -1 when it is below?

- seq: "TFMKQYPKVFL [CNBD1_Y70]"
  category.label: -1
- seq: "QNTVDYYDLYG [PTPN11_Y62_G60V]"
  category.label: 1
- seq: "EFGSGYPNDPK [RNASEH2A_Y210_D205E_YF]"
  category.label: 1
- seq: "MAFDRYVAVCA [OR52J3_Y125]"
  category.label: 1
- seq: "IKNPQYFSDAC [NTRK1_Y496_E492K]"
  category.label: -1
- seq: "WRRLIYRCQVG [NR2E3_Y81_R76W]"
  category.label: 1
- seq: "KNNDGNIDFAE [MCFD2_Y135_Y135N_YF]"
  category.label: 1
- seq: "KDHPDYKFQAR [SOX10_Y171_P175A_YF]"
  category.label: 1
- seq: "GKMSSYAFFVQ [HMGB1_Y16]"
  category.label: 1
- seq: "ACEVLYNIVFM [NCF2_Y125_A128V]"
  category.label: 1
- seq: "RLPNGYGLAFR [DLK1_Y262_S260N_YF]"
  category.label: 1
- seq: "ADKSVYLMGLN [MYH7_Y386_A385V]"
  category.label: -1
- seq: "IHKEFYDGLFP [BCR_Y561]"
  category.label: 1
- seq: "TINPIYEHVGY [CHN1_Y143]"
  category.label: 1
- seq: "LEQDEYALHSH [HADHB_Y244_R247H]"
  category.label: 1
- seq: "GADDSYFTARS [ZAP70_Y492_YF]"
  category.label: -1
- seq: "EPVSDYINADI [PTPN11_Y304_N308D]"
  category.label: 1
- seq: "KDFETYQSFQN [CTNND2_Y1157_P1159S_YF]"
  category.label: 1
- seq: "TVLWLYTGTRP [UGT1A1_Y337_R336L]"
  category.label: -1
- seq: "SMEGLYSSTQD [CLIC5_Y111]"
  category.label: 1

###

# measurement.target: Hck (UniProt P08631)
# assay.text: phosphorylation enrichment, bacterial display (enrichment ratio); higher = better substrate or ligand; peptides without Tyr show the background
Overview of recorded phosphorylation enrichment for various sequences

- seq: "IVLRSYPASDH [NID2_Y449_G453D]"
  measurement.target: "Hck (UniProt P08631)"
  phosphorylation enrichment: 0.44
- seq: "NKKYHYRELPV [ERN2_Y860_H858Y]"
  measurement.target: "Hck (UniProt P08631)"
  phosphorylation enrichment: 0.29
- seq: "GRGMPYGGRGD [TGM1_Y312_R307G]"
  measurement.target: "Hck (UniProt P08631)"
  phosphorylation enrichment: 0.4
- seq: "GQKVAYGGTED [ALDH3A1_Y305_G309E]"
  measurement.target: "Hck (UniProt P08631)"
  phosphorylation enrichment: 0.402
- seq: "FDAHIYEGCVI [PRKCD_Y64_R67C]"
  measurement.target: "Hck (UniProt P08631)"
  phosphorylation enrichment: 2.53
- seq: "CEHFSYYGMKA [SLC15A2_Y60_R57H]"
  measurement.target: "Hck (UniProt P08631)"
  phosphorylation enrichment: 1.93
- seq: "IGRHAYGDQFR [IDH1_Y135_YF]"
  measurement.target: "Hck (UniProt P08631)"
  phosphorylation enrichment: 0.341
- seq: "ARSHIYTFSSC [MEFV_Y741_A744S]"
  measurement.target: "Hck (UniProt P08631)"
  phosphorylation enrichment: 0.61
- seq: "MAFDRYAAICS [OR8H2_Y123_H120Y_YF]"
  measurement.target: "Hck (UniProt P08631)"
  phosphorylation enrichment: 0.76
- seq: "NKVFTYIFIME [SCN4A_Y1074_D1069N]"
  measurement.target: "Hck (UniProt P08631)"
  phosphorylation enrichment: 0.509
- seq: "YRDMDYRSYPH [RBM10_Y41_R46H]"
  measurement.target: "Hck (UniProt P08631)"
  phosphorylation enrichment: 0.457
- seq: "DEGVNYFMSKG [FBXO8_Y156]"
  measurement.target: "Hck (UniProt P08631)"
  phosphorylation enrichment: 0.456
- seq: "SIIKDYFHRGA [GATM_Y203]"
  measurement.target: "Hck (UniProt P08631)"
  phosphorylation enrichment: 0.43
- seq: "SGPRCYTIAAL [TTR_Y125_R124C]"
  measurement.target: "Hck (UniProt P08631)"
  phosphorylation enrichment: 0.354
- seq: "QLQVFYATRDQ [MIPEP_Y579_L582R]"
  measurement.target: "Hck (UniProt P08631)"
  phosphorylation enrichment: 1.14
- seq: "GIVEDYRPPLY [ACVRL1_Y421_F425L]"
  measurement.target: "Hck (UniProt P08631)"
  phosphorylation enrichment: 0.382
- seq: "DTFDPYLDIAL [USP36_Y268_V271I_YF]"
  measurement.target: "Hck (UniProt P08631)"
  phosphorylation enrichment: 0.577
- seq: "ETEMLYGSAPR [PRC1_Y464]"
  measurement.target: "Hck (UniProt P08631)"
  phosphorylation enrichment: 6.51
- seq: "DLAGRYYALRS [CKB_Y173_K177R]"
  measurement.target: "Hck (UniProt P08631)"
  phosphorylation enrichment: 0.681
- seq: "HKLSFNEFDFE [BTK_Y40_Y40N_YF]"
  measurement.target: "Hck (UniProt P08631)"
  phosphorylation enrichment: 0.918
- seq: "GSRGKCSSGFR [ATM_Y332_Y332C]"
  measurement.target: "Hck (UniProt P08631)"
  phosphorylation enrichment: 0.464
- seq: "SVGVPYEPPEV [TP53_Y220_V217G]"
  measurement.target: "Hck (UniProt P08631)"
  phosphorylation enrichment: 0.577
- seq: "KVPELYEIHTE [BCR_Y554_K558T]"
  measurement.target: "Hck (UniProt P08631)"
  phosphorylation enrichment: 0.745
- seq: "TLSGTYQYIIA [FOXL2_Y81_I80T]"
  measurement.target: "Hck (UniProt P08631)"
  phosphorylation enrichment: 3.11
- seq: "PSQRHYVYYYS [PTEN_Y174_R173H]"
  measurement.target: "Hck (UniProt P08631)"
  phosphorylation enrichment: 2.13
